Biological target: CXC chemokine receptor type 4 (CXCR4) (human, UniProt P61073 1-352)
Sequence (P61073 whole entry): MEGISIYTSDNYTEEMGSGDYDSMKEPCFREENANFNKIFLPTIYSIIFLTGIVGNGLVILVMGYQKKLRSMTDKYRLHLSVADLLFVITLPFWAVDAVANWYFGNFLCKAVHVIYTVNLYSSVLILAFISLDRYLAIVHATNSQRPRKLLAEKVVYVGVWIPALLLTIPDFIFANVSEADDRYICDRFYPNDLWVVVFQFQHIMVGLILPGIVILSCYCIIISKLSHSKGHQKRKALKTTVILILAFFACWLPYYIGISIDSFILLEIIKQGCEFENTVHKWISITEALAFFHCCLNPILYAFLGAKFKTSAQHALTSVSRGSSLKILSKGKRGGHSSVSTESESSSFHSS
Test: cell-based or functional assay
Where no end group is shown, it is not given here. [ ]: non-standard residue; d: D form. The star is where a group is joined. Stearoyl = CCCCCCCCCCCCCCCCCC(=O)*
METRIC_NAME: IC50, HIV inhibition assay

{"BINDER": "IVRWSKKVP-NH2 [JM#106]", "IC50, HIV inhibition assay": "> 150 nM"}

Using known records, supply IC50, HIV inhibition assay for ILRWSKKVPCVS [JM#1]
> 150 nM

For [dL]LRWSRK-NH2 (not fully specified (residue 7)) [JM#235] , write its IC50, HIV inhibition assay.
5 to 10 nM

Using the record for IXRWSRKLPCVS (d-L at position 2) [JM#41] , state its measured IC50, HIV inhibition assay.
> 150 nM

Check the records and state IC50, HIV inhibition assay for [dL]LRWSRK(Stearoyl)-NH2 (N-terminus assumed; SMILES CCCCCCCCCCCCCCCCCC(=O)NCCCC[C@H](NC(=O)[C@H](CCCNC(=N)N)NC(=O)[C@H](CO)NC(=O)[C@H](Cc1c[nH]c2ccccc12)NC(=O)[C@H](CCCNC(=N)N)NC(=O)[C@H](CC(C)C)NC(=O)[C@H](N)CC(C)C)C(N)=O) [JM#256]
50 to 150 nM

Supply recorded IC50, HIV inhibition assay for ILRWSRK(Lau)LPCVS [JM#214] here.
50 to 150 nM
